Reference source: patent US9828379B2

Catalogue of inhibition at 1 µM readings, one per entry.
Target: FAAH (Mus musculus)
Sequence (O08914 whole entry): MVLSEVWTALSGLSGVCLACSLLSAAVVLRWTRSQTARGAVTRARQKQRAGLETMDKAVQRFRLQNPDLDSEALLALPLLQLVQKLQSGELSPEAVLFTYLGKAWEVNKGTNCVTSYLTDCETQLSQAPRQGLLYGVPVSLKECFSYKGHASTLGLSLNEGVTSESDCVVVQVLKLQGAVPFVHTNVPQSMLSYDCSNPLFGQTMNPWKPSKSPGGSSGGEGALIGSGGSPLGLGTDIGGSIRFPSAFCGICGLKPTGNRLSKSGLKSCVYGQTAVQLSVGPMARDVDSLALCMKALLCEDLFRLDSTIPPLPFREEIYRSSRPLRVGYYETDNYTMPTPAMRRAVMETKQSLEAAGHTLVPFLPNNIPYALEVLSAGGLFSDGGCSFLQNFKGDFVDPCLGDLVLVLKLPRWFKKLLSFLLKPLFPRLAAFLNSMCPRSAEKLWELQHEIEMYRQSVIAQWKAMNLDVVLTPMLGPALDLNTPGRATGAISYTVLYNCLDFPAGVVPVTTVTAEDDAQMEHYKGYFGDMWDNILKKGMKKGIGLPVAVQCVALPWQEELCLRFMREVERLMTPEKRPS
Assay: In vitro competitive activity-based protein profiling (Table 2, % inhibition at 1 μM)
Type: biochemical
Settings: read-out: % Inhibition at 1 μM FAAH

CCn1cc(CN2CC3CN(C(=O)OC(C(F)(F)F)C(F)(F)F)CC3C2)c(-c2cccc(N3CCC3)c2)n1 (stereo not shown)    < 25%
CCn1cc(CN2CC3CN(C(=O)OC(C(F)(F)F)C(F)(F)F)CC3C2)c(-c2ccccn2)n1 (stereo not shown)    < 25%
Cc1c(CN2CC3CN(C(=O)ON4C(=O)CCC4=O)CC3C2)cccc1N1CCCCC1 (stereo not shown)    > 75%

Endpoint output: inhibition at 1 µM of Cc1cccc(CN2CC3CN(C(=O)ON4C(=O)CCC4=O)CC3C2)c1N1CCN(C)CC1 (stereo not shown) . Value?
< 25%

Endpoint output: inhibition at 1 µM of O=C(OC(C(F)(F)F)C(F)(F)F)N1CC2CN(Cc3ccc(N4CCOCC4)cc3Cl)CC2C1 (stereo not shown) . Value?
25 to 75%

Endpoint output: inhibition at 1 µM of CC(=O)NC1CCN(c2cccc(CN3CC4CN(C(=O)OC(C(F)(F)F)C(F)(F)F)CC4C3)c2C)CC1 (stereo not shown) . Value?
< 25%
